Reference source for all entries: patent US20230134571A1

- targetOrSystem: HIV Env, isolate HIV-001428-2.42 (HIV)
- experimentalProtocol: cell-based or functional assay
Please provide measured IC80 (µg/ml) with constrains for the entries that follow.
I only need the number, in µg/mL, no unit after it.

Request: Given the entry ePGDM9 (antibody, V domains shown) VH: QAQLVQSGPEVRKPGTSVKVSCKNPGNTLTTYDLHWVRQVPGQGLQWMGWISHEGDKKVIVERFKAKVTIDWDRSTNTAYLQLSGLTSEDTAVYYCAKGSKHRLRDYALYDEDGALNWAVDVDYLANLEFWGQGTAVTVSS VL: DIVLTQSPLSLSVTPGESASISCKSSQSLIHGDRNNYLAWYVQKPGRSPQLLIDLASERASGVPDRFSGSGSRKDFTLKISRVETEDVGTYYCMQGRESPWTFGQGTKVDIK , report its measured IC80 (µg/ml) with constrains.
Result: 0.008

Request: Quick one: ePGDM13 (antibody, V domains shown) VH: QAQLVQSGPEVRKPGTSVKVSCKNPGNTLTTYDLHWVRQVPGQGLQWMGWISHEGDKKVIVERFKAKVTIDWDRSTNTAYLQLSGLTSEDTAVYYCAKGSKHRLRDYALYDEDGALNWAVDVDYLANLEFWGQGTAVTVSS VL: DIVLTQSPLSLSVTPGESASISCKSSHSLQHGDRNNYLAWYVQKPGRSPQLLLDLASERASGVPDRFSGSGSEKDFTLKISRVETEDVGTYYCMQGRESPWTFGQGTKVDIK
Result: 0.011

Request: Input PGDM1400 (antibody, V domains shown) VH: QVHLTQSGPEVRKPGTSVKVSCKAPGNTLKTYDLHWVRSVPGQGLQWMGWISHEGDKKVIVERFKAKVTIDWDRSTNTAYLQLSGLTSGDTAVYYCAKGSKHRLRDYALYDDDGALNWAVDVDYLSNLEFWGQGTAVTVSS VL: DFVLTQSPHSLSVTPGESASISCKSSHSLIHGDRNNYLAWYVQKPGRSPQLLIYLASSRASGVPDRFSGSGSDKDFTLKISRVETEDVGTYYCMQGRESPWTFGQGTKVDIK
Result: 0.054

Request: Proceed to ePGDM5 (antibody, V domains shown) VH: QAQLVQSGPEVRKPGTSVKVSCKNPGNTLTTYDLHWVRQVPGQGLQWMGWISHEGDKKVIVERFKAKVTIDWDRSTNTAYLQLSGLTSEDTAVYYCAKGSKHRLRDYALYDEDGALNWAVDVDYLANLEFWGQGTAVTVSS VL: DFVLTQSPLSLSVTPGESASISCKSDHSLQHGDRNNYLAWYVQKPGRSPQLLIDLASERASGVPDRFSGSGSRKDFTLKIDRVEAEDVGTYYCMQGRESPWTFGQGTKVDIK
Result: 0.013
